- Test system: rodent lifetime carcinogenesis bioassay, tumor incidence TD50
- protocolNotes: carcinogenic potency in animals, long-term in vivo studies, CPDB compilation (AID 1745844)
- assaySetup: mouse; strain B6AKF1; males; oral dosing; site: any site (literature study); lesion: several types; types named in the paper; dosed 84 weeks; study length 84 weeks

>  <compoundString>
CC(C)N(C(=O)SCC(Cl)=CCl)C(C)C

>  <readoutUnits>
mg/kg/day

>  <TD50>
35.4

$$$$

###

- System: rodent lifetime carcinogenesis bioassay, tumor incidence TD50
- protocolNotes: carcinogenic potency in animals, long-term in vivo studies, CPDB compilation (AID 1745844)
- assaySetup: rat; strain MRC-Wistar; females; in drinking water; site: respiratory system; lesion: one or several types; types not named; dosed 52 weeks; study length 90 weeks
attributeMeasured: TD50

>  <compoundString>
CCN(C#N)N=O

>  <measurement>
2.91 mg/kg/day

$$$$

###

- System: rodent lifetime carcinogenesis bioassay, tumor incidence TD50
- protocolNotes: carcinogenic potency in animals, long-term in vivo studies, CPDB compilation (AID 1745844)
- assaySetup: rat; strain Wistar; both sexes; in feed; site: mediastinum; lesion: malignant lymphoma; dosed 93 weeks; study length 93 weeks
attributeMeasured: TD50

>  <compoundString>
CCN(Cc1cccc(S(=O)(=O)O)c1)c1ccc(C(=C2C=CC(=[N+](CC)Cc3cccc(S(=O)(=O)[O-])c3)C=C2)c2ccccc2)cc1

>  <subjectOfTest>
rodent lifetime carcinogenesis bioassay, tumor incidence TD50

>  <measurement>
8370 mg/kg/day

$$$$

###

- Test system: rodent lifetime carcinogenesis bioassay, tumor incidence TD50
- protocolNotes: carcinogenic potency in animals, long-term in vivo studies, CPDB compilation (AID 1745844)
- assaySetup: rat; strain Fischer 344; females; in drinking water; site: liver; lesion: hyperplastic nodule; dosed 100 weeks; study length 128 weeks

>  <compoundString>
O=NN1CC=CCC1

>  <TD50>
0.284 mg/kg/day

$$$$

###

- Test system: rodent lifetime carcinogenesis bioassay, tumor incidence TD50
- protocolNotes: carcinogenic potency in animals, long-term in vivo studies, CPDB compilation (AID 1745844)
- assaySetup: mouse; strain B6C3F1; females; inhaled; site: liver; lesion: hepatocellular adenoma + hepatocellular carcinoma; dosed 100 weeks; study length 100 weeks
attributeMeasured: TD50

>  <compoundString>
CCCl

>  <subjectOfTest>
rodent lifetime carcinogenesis bioassay, tumor incidence TD50

>  <measurement>
7220 mg/kg/day

$$$$

###

- Tested on: rodent lifetime carcinogenesis bioassay, tumor incidence TD50
- protocolNotes: carcinogenic potency in animals, long-term in vivo studies, CPDB compilation (AID 1745844)
- assaySetup: rat; strain Fischer 344; males; oral dosing; site: all sites; lesion: leukemia + lymphoma; dosed 78 weeks; study length 104 weeks
attributeMeasured: TD50

>  <compoundString>
COc1cc(-c2ccc(N=C=O)c(OC)c2)ccc1N=C=O

>  <measurement>
1270 mg/kg/day

$$$$

###

- Test system: rodent lifetime carcinogenesis bioassay, tumor incidence TD50
- protocolNotes: carcinogenic potency in animals, long-term in vivo studies, CPDB compilation (AID 1745844)
- assaySetup: mouse; strain CDF1; females; in feed; site: liver; lesion: hepatocellular adenoma; dosed 67 weeks; study length 67 weeks
attributeMeasured: TD50 (mg/kg/day)

>  <compoundString>
Cc1cccn2c1nc1ccc(N)nc12

>  <attributeMeasured>
TD50

>  <readoutUnits>
mg/kg/day

>  <measurement>
44.1

$$$$
